Target: HIV-1 reverse transcriptase (RNase H) (Human immunodeficiency virus type 1 group M subtype B)
Assay: ASH assay: RNase H mediated RNA cleavage (ECL format, BioVeris M384)
Type: biochemical
Protocol: Potency of a substance as an RNase H inhibitors can be determined by measuring its ability prevent RNase H catalyzed cleavage of the RNA strand in a RNA/DNA hybrid duplex substrate. RNase H activity is measured using a substrate generated by annealing the oligoribo-nucleotide 5′-rCrCrUrCrUrCrArArArArArCrArGrGrArGrCrArGrArArArGrArCrArArG (SEQ ID NO:1) to the oligodeoxyribonucleotide 5′-Biotin-[…] (SEQ ID NO:2). […] (SEQ ID NO:3). […]
Measured Quantity: IC50
Field: value (include unit after the number)

Challenge: Quick one: IC50 for NCc1cccc(-c2cc(=O)n(O)c3ncccc23)c1 [Example 172] ?
Response given: 140 nM

Challenge: Quick one: IC50 for NCc1ccc(-c2ccc(Cc3cc(=O)n(O)c4ncccc34)cc2)cc1 [Example 235] ?
Response given: 46 nM

Challenge: Quick one: IC50 for O=C(NC1CCN(Cc2ccccc2)CC1)c1c(O)c2cccnc2n(O)c1=O.O=C(O)C(F)(F)F [Example 21] ?
Response given: 180 nM

Challenge: Quick one: IC50 for CN(C)CCC(Nc1cc(=O)n(O)c2ncccc12)c1ccccc1 (centres unmarked) [Example 158] ?
Response given: 360 nM

Challenge: Quick one: IC50 for NCc1ccccc1CNc1cc(=O)n(O)c2ncccc12 [Example 163] ?
Response given: 180 nM

Challenge: Quick one: IC50 for O=c1cc(NCc2ccccn2)c2cccnc2n1O [Example 149] ?
Response given: 140 nM

Challenge: Quick one: IC50 for O=c1cc(NCc2cccc(CN3CCOCC3)c2)c2cccnc2n1O [Example 151] ?
Response given: 160 nM

Challenge: Quick one: IC50 for O=c1cc(NC2CCc3ccccc32)c2cccnc2n1O (centres unmarked) [Example 134] ?
Response given: 91 nM

Challenge: Quick one: IC50 for O=c1cc(NC2CCCc3ccccc32)c2cccnc2n1O (centres unmarked) [Example 135] ?
Response given: 61 nM

Challenge: Quick one: IC50 for COc1ccccc1CNc1cc(=O)n(O)c2ncccc12 [Example 142] ?
Response given: 84 nM

Challenge: Quick one: IC50 for C[C@H](Nc1cc(=O)n(O)c2ncccc12)c1ccccc1 [Example 124] ?
Response given: 230 nM

Challenge: Quick one: IC50 for COc1ccc(CNc2cc(=O)n(O)c3ncccc23)cc1 [Example 140] ?
Response given: 110 nM

Challenge: Quick one: IC50 for COC(=O)c1ccc2c(c1)CCN(c1cc(=O)n(O)c3ncccc13)C2 [Example 121] ?
Response given: 150 nM

Challenge: Quick one: IC50 for O=c1cc(NC2CCN(c3ccccc3)CC2)c2cccnc2n1O [Example 154] ?
Response given: 200 nM

Challenge: Quick one: IC50 for O=c1cc(Nc2ccc(-c3ccccc3)cc2)c2cccnc2n1O [Example 106] ?
Response given: 88 nM

Challenge: Quick one: IC50 for O=c1cc(NCc2ccc(CN3CCOCC3)cc2)c2cccnc2n1O [Example 111] ?
Response given: 46 nM

Challenge: Quick one: IC50 for O=c1cc(Nc2ccccc2N2CCOCC2)c2cccnc2n1O [Example 147] ?
Response given: 17 nM

Challenge: Quick one: IC50 for CN1CCN(Cc2cccc(CNc3cc(=O)n(O)c4ncccc34)c2)CC1 [Example 150] ?
Response given: 150 nM

Challenge: Quick one: IC50 for O=c1cc(N2CCc3ccc(-c4cccnc4)cc3C2)c2cccnc2n1O [Example 255] ?
Response given: 120 nM

Challenge: Quick one: IC50 for NCc1ccc(-c2ccc(-c3c(-c4ccccc4)c(=O)n(O)c4ncc(F)cc34)cc2)cc1 [Example 242] ?
Response given: 180 nM
